src = ChEMBL document CHEMBL1131287

targetOrSystem: UniProtKB P30874
Sequence (P30874 whole entry): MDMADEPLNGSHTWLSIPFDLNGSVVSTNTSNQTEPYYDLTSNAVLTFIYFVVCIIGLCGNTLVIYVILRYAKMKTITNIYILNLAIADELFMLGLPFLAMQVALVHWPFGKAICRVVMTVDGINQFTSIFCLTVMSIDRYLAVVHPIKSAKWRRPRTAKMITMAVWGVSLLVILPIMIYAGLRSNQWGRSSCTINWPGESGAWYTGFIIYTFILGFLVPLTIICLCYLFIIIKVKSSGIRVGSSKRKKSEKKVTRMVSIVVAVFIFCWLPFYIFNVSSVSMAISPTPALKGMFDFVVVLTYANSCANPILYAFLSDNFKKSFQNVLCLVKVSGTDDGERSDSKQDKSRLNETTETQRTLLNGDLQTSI
testDetails: In vitro inhibition of radioligand binding to human somatostatin receptor (hsst2) expressed in CHO-K1 cells.
Type: cell-based
conditionContext: cho-k1
assayEndpoint: pKi
The read-out pKi is expressed as -log10 of concentration in moles per litre.

# smilesRepresentation, resultValue
data = [
    ("C[C@@H](O)[C@@H]1NC(=O)[C@H](CCCCN)NC(=O)[C@@H](Cc2c[nH]c3ccccc23)NC(=O)[C@H](Cc2ccccc2)NC(=O)CN([C@@H](C)c2ccccc2)C(=O)[C@H](Cc2ccccc2)NC1=O", 7.53),
    ("C[C@H](c1ccccc1)N1CC(=O)N[C@@H](Cc2ccccc2)C(=O)N[C@H](Cc2c[nH]c3ccccc23)C(=O)N[C@@H](CCCCN)C(=O)N[C@@H]([C@@H](C)O)C(=O)N[C@@H](Cc2ccccc2)C1=O", 8.63),
]

We next turn to a different compound, shown below.
[Q] Would you kindly share the measured pKi for C[C@@H](O)[C@@H]1NC(=O)[C@H](CCCCN)NC(=O)[C@@H](Cc2c[nH]c3ccccc23)NC(=O)[C@H](Cc2ccccc2)NC(=O)CN(Cc2ccccc2)C(=O)[C@H](Cc2ccccc2)NC1=O ?
[A] 8.16
